Listed below: soluble fraction (log2) values for each entry.
# protocol.summary: soluble fraction after stress (log2 fold change); higher = more stays soluble; pooled small domains, quantitative proteomics;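 further: 20 min heating vs room temperature control held 20 min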
# run.parameters: stress: 75 degC
A bare number is all that is needed in reply.

Fill in: soluble fraction (log2) of `HMAPPPPEGYIHRWIRESVMGFDDKKNLSARIREGFELVRAEEYPDYEAPTVMDGKHAGVIANGGLLLARF` is ___ -0.201

Also `HMLGNIERALEMLQEVAATMDPVDIRLLLSMAQVESVRGNTEAAVKLIDEALVIDPGNERIEQIRLRVL` ? -0.482

====

# protocol.summary: soluble fraction after stress (log2 fold change); higher = more stays soluble; pooled small domains, quantitative proteomics
# run.parameters: stress: 75 degC
Decision: soluble fraction (log2) >= -1 yields Satisfied, all other cases yield Not satisfied.

These recorded examples may help you get a feel for the data.
HMVPPVVRTIYGAGGKMTATFLFPGGYEVDAASGAELPGKYRVESISLDQVVLTDKDGNRVPVGFSSVAPT
Satisfied
HMRPTAWEQVSRHIDQHGSIGNTEVRKAMETENVLAASKQIKKWLEQGLLIILNPTAGTRARRYSKPNM
Not satisfied

Test whether the sequence `HMLDYKSALQELLQAQRRSRPRYEVISTEGPDHERVFEVAVWLDNEELGRGKGRSKREAEHQAAQAALTQL` records soluble fraction (log2) of -1 or higher. Satisfied

Also check `HMSSGSLLTEREIEILAEMAKGLTNKAIGEKLFISVATVKTHILNIYRKLEVSSRVTAVNKAKQMRL` Not satisfied

Now give it for `HMSDLFKYSPYKTLTEEQYKITYQIIERLKTDLSNGIPRISIIDGGAGTGKSILGIFLLKLLVDAQN` too. Satisfied

Consider next the sequence `HMTKGVWHTVKKGENLYRISLYYEVPQQEIKKANKIETENIVVGQKLFIPNTTKKSPIFALTP` in the same way. Not satisfied

And the next one, `HMSTSEQVYTTDKVNVRREADTSSEKLGSLEKGTAISRTGTEGEWSVVNYGGVTGYIKTEFLTTEQPQ` ? Satisfied

And the next one, `HMLLNPFERLTERELEIADLYAKGYGNLEIANFLSIKQNTVSTYKKRIFEKLGIDNLVELIELIKNY` ? Satisfied

Now try `HMAPRASDALTERELDVLRVVADGASVAEAAEMLVVSRETVKKHLGNIYAKLGVHSKMQAVALLREEGV` . Satisfied

What do you get for `HMTIGIGKSLDFNTSGEKAYRIYNFKGAYVGTFKASDMTSLKNEVQKSNVKAGAYMVRSLDGHVNRLIEIK` ? Not satisfied

// repeat for `HMLETILQIGKDGVGENLVKQVNDALEARELIKGRVLDNNLELDARTAAQILAKATRSEVVQVIGTKFV` and report Satisfied

Here is the next sequence: `HMQVSDVTTIRALVEEVLSSSPQQLAQYRAGKLSLKGYFVGQVMKKGKGQLNAAAVNNLLDEIL` Not satisfied

====

# protocol.summary: soluble fraction after stress (log2 fold change); higher = more stays soluble; pooled small domains, quantitative proteomics
# run.parameters: stress: 75 degC
property.label: soluble fraction (log2)
Just the number, please, no unit after it.

HMVVADFQNYTVKPKENLYSLTKTSGLSQEELVALNPELKNGVQEGMVIKLPAAVKLMAQPE
0.201
HMQNPYDTLGVSRDSTDAEIKKAYRKLAMEHHPDKGGDSQRFAEINNAYDNIKDMSSRQNFENDPSNFQ
0.266
HMEQVLDEEIIKSAVQKVIKDNPSAVSDYKAGKKTAFQFLIGKAMAELQGKGHPGKISELLEKE
0.474
HMNPIEAQIEELKNKDQKTAYQALKHLLAISETRAEVSYYFDRFVALLQDPQSYVRTRGLLLIGA
0.584

Fill in: soluble fraction (log2) of `HMGKTTQEIEERSSTSTLTLTQTPKEIISVQGKKSDQSFFTNIQYTQNGKVIVPKQTGIYDTIKVVFTVSL` is ___ -1.48

Check `HMSTTYAPYLLGETEQEAIRMARNAGLDPQVVRQSDKSEAGTVILQSHDFGFAMKRGAVILITVSSGPLQ` too. -2.13

Same again, this time with `HMSNWYKNNETDQIWWKDTPDSVGEWLFSFDKKQVFNMFADYPHNLTPEQKKIFDEENPEWSDRP` -0.351

Then `HMSTVTEVHYIAFKNGRIVDIKAALTGSAVTATSIKEQPKIENYNYTTSEVRDGILYHTYAPVA` ? -2.37

And for `HMPSSFLVKVTADALNIRSGPGVANRITGTIKDKGTYTIVDTKDDWGKLKSGVGWIHLGYTKRLD` ? -0.857

Can you handle `HMNDGTIRVGTNVTIKPSAKRWATGQNIYYGVKGKTYKVIQMNGNRLLLDKVISWINKGDVYVPGS` next? -0.741

Now the same for `HMQKLKINKYKDPKGEIRYYIASTIRNGNKSSTHNLLSLGKHSDLLKEHSDVEAYLKERLNEAMESGI` -0.0843

And then `HMGTGELLVHVIGAVHSPGVVRLPTGARVVDAIDAAGGAREDAQTEQLNLARLVDDGEQVRVPVVGESVD` , what is it? 0.081

====

# protocol.summary: soluble fraction after stress (log2 fold change); higher = more stays soluble; pooled small domains, quantitative proteomics
# run.parameters: stress: 75 degC
Entries and their measured soluble fraction (log2) follow.
Reply with the value as a number alone.

HMIHSEDMDDHILGHKLVDQYLNKHIEFDNIKKAWNYHTVAIKKFGRYPHRNKILKRESTIEEIDFLKQP
0.252
HMKVNQFEVEGNQRYSTEEIAKASGVSKGDNLFLVNKTETARKLLDELAYVRSVNIKRKLPDTLVITVAE
-0.032

Name the recorded soluble fraction (log2) for `HMGQELTPVERTALDIAARDGKVSTRILAQEAGIGLRTASKTLAALAERGLLTWHGTSRRDPQQHYTS` . -0.0688

And `HMDHWQSVNSALELLEVSRRTLYDYISRKKLQTKKEGKYRYVWIDDDVIEEIKTSKSAYIEINN` ? -2.21

Let us now turn to `HMEGVNLTVQEAKQMAAIIAPLLKQGQSPYQIVTNHPELGISEKTLYNYIENDVFHEIAGITVMDL` -0.819

// query: `HMDDVVVLPFTAEFARMSSDDFVREILVGKIGMKRFVVGYNHRFGSGQQGDFASLQRMQGELGFVAVRVG` 0.368

Then `HMVANDQILNQYGISDREAEIIGLLIEGLSNQQIAKQLYISPNTVKTHIKNIYAKVGVNNRLQLFSLLK` ? -0.435

Please answer likewise for `HMKPPTIELSYSEFIELVERGKVSKVIFSSDNYTLKGETVNGENFETVRPPFLEDNLSEILTIHKVPVSSE` -0.109

Can you check `HMNAMKPVLTVSLGVHTDSLSRRLNEEGIIYRWQQAASEQLLLVDSESSSERIAELIHDWRLEQSSS` next? -0.0158

Proceed to `HMGGLAHPASGEEMEHLFAHLEGELLKSGFLFPPDKAAGMMRNIRAMLTRADFTDQEVRTLRGMIVALSRG` -1.62

====

// soluble fraction (log2) lookup, one value per entry
# protocol.summary: soluble fraction after stress (log2 fold change); higher = more stays soluble; pooled small domains, quantitative proteomics
# run.parameters: stress: 75 degC

Example entries begin here.
HMNKYNNIEDLKEEDFENISEKYQVPVSFVKSKLDDLINWHEKNPQKNHYKNYLSALRDWVKRDSLKIKL
-0.132
HMSVYIGVDQAKSIAAEHAGLSNSAVTFSKAKLENDDGMTVYEVEFFYQGTEYDYKIDASTGSILEYDLDR
-1.64
HMRLPNHYGSVVKLSGKRRRPFMVRGGVYGYDDRGYPQYVIVGYTETREQGLTMLAEYNRNP
-3.17
HMLSYDDTVVIGRNLLENAMKQKNIALEQLTDEVLARLAKELQVESVEAMYAGIGSGKRPSSFIINRLEAH
-0.75
HMPTMVAQINEIVQAKLPGSGLKDYTIRLVESQRDGVVVWVNGTRYLGVDEVAEPQVQALLKEAVAEWERS
-0.462
HMRYLHTMIRVSDLEESLNFFKLLDIHEVSRKENEQARFTLVFLSATGDEKLVENAKSPLIELTFN
-0.0509

For the sequence shown here, `HMARGRETILLVEDEPAVRGLVHATLRLHGYTVLEARHGIEALLTSTKFVGPIHLLLTDVVMPQMS` , give the reported soluble fraction (log2). 0.0984

Moving on to the next sequence: `HMKELTELIEKIKLRRLELGLSYQELSDLTGINKSTLQRYETGFIKKVPINQVQIIAKALNVTPGYLMG` -0.72

// next record `HMLLSTHVVVAKEDVQIGTRLQPAMLQVVDWPSASPLKNPLTSIEQATDRVVNMPLVKGEPISMSKLAAKG` -0.296

Also check `HMNTPLYLKIREQIFDALRSGRWAANDPLPSETKLASEFEVSQGTIRKAIDDLVAQNILYRHQGRGTFIRR` -1.21
